- protocol-text: Dissociation constant, apparent pKa of the compound in 20% EtOH/H2O
- Assay type: physicochemical
- measurement-conditions: read-out: Apparent_pKa
property-measured: pKa
Reply with the value as a number alone.

input: Record request: pKa value, item N=C(CSCc1ccccc1)NC[C@@H]1C[C@H]2CC[C@H]1C2 (relative stereo; 51)
output: 11

---

// reported inhibition in vivo at 16 mg/kg per item
- Test system: Canis familiaris
- protocol-text: Inhibition of gastrin tetrapeptide-induced gastric secretion in beagle dog at 16 mg/kg administered directly into stomach via gastric cannula measured after 2 hrs of stimulation
- Format: functional
- measurement-conditions: Canis lupus familiaris
Note: unit % is implicit; provide only the numeric part.

Worked cases, inhibition in vivo at 16 mg/kg given:
- molecule: "Cl.N=C(CS)Nc1cccc2c1CCCC2"
  property-measured: "inhibition in vivo at 16 mg/kg"
  measured-number: 14
- molecule: "Cl.N=C(CS)Nc1cccc2ccccc12"
  property-measured: "inhibition in vivo at 16 mg/kg"
  measured-number: 64
- molecule: "Cl.N=C(CS)NC1C2CC3CC(C2)CC1C3 (stereo not given)"
  property-measured: "inhibition in vivo at 16 mg/kg"
  measured-number: 85
- molecule: "CC(C)(C)CNC(=N)CO.Cl"
  property-measured: "inhibition in vivo at 16 mg/kg"
  measured-number: 61
- molecule: "Cl.N=C(CCSSCCC(=N)NCc1ccccc1)NCc1ccccc1"
  property-measured: "inhibition in vivo at 16 mg/kg"
  measured-number: 42

input: Looking for the measured inhibition in vivo at 16 mg/kg of Cl.N=C(CS)NC(c1ccccc1)c1ccccc1 , can you help?
output: 82

input: Moving on to CC(=N)NCc1ccccc1.Cl
output: 19

---

- System: Canis familiaris
- protocol-text: Inhibition of gastrin tetrapeptide-induced gastric secretion in beagle dog at 16 mg/kg administered directly into stomach via gastric cannula measured after 2 hrs of stimulation
- Format: functional
- measurement-conditions: Canis lupus familiaris
Decision: inhibition in vivo at 16 mg/kg compared against 60%; not below it gives true (1), below it gives false (0).

- molecule: "Cl.N=C(CS)NC1c2ccccc2-c2ccccc21"
  classification: "false (0)"

Pending molecule:
input: Entry Cl.N=C(CSSCC(=N)NCC12CC3CC(CC(C3)C1)C2)NCC12CC3CC(CC(C3)C1)C2 : is its inhibition in vivo at 16 mg/kg no less than 60%?
output: true (1)

---

- Tested on: Canis familiaris
- protocol-text: Inhibition of gastrin tetrapeptide-induced gastric secretion in beagle dog at 16 mg/kg administered directly into stomach via gastric cannula measured after 2 hrs of stimulation
- Format: functional
- measurement-conditions: Canis lupus familiaris
Here the recorded inhibition in vivo at 16 mg/kg is given for each entry.
Answer with the value and then the unit.

Examples from the recorded data:
- compound: "Cl.N=C(CS)N1CCOCC1"
  inhibition in vivo at 16 mg/kg: "23%"
- compound: "CN(Cc1ccccc1)C(=N)CS.Cl"
  inhibition in vivo at 16 mg/kg: "0%"
- compound: "Cl.N=C(CS)Nc1ccccc1"
  inhibition in vivo at 16 mg/kg: "0%"
- compound: "Cl.N=C(CS)N1CC2CCC(CC2)C1"
  inhibition in vivo at 16 mg/kg: "92%"
- compound: "Cl.N=C(CS)NCCC12CC3CC(CC(C3)C1)C2"
  inhibition in vivo at 16 mg/kg: "100%"

input: Query inhibition in vivo at 16 mg/kg on Canis familiaris for Cl.N=C(CS)NCC12CCCC(CCC1)C2
output: 23%

input: # iterate: N=C(CSCc1ccccc1)NC[C@@H]1C[C@H]2CC[C@H]1C2 (relative stereo; 51)
output: 19%

input: What would you report for Cl.N=C(CO)NCc1ccccc1 ?
output: 0%

input: Proceed to Cl.N=C(CCS)NCc1ccccc1
output: 18%

input: Cool, now Cl.N=C(CS)NC1CCc2ccccc21 (stereo unspecified)
output: 85%

input: Can you handle CC(C)(C)CNC(=N)CCSSCCC(=N)NCC(C)(C)C.Cl next?
output: 75%

input: Record: CC(S)C(=N)NCC(C)(C)C.Cl (stereo unspecified)
output: 28%

input: What about Cl.N=C(CS)NC1Cc2ccccc2C1 ?
output: 100%

input: Param item: Cl.N=C(CS)Nc1cccc(Cl)c1
output: 16%

input: Also check O=C(CS)NC12CC3CC(CC(C3)C1)C2
output: 58%

input: Do the same for Cl.N=C(CS)NCC(c1ccccc1)c1ccccc1 please
output: 60%

input: Follow-up item: Cl.N=C(CS)NC(Cc1ccccc1)c1ccccc1 (stereo unspecified)
output: 84%
